# Test system: PC-12
# Test: Cytoprotective activity on rat tunicamycin treated rat pheochromocytoma cell line PC12 from apoptosis induced by Endoplasmic reticulum stress; NA = Not active upto 100 uM
# Type: functional, cell-based
Endpoint Label: EC50

Answered cases to consult:
1. CCOC(=O)C(/N=C(\S)Nc1ccccn1)NC(=O)/C=C/c1ccccc1 (configuration not stated) = Not Active
2. CCCCOc1ccc(/C=C/C(=O)NC(/N=C(\S)Nc2ccccn2)C(Cl)(Cl)Cl)cc1 (configuration not stated) = Not Active
3. O=C(/C=C/c1ccccc1)NC1CSC(Nc2ccccn2)=N1 (configuration not stated) = Not Active
4. O=C(/C=C/c1ccccc1)NC(NC(=S)Nc1cnc2ccccc2c1)C(Cl)(Cl)Cl (configuration not stated) = Not Active
5. O=C(NC(NC(=S)Nc1ccccn1)C(Cl)(Cl)Cl)c1ccccc1 (configuration not stated) = Not Active

Hi team, please reply with EC50 for each item in this list.
1. CC(C)=CC(=O)NC(/N=C(\S)Nc1ccccn1)C(Cl)(Cl)Cl (configuration not stated)
2. O=C(/C=C/c1ccccc1)NC(CO)/N=C(\S)Nc1ccccn1 (configuration not stated)

[out]
1. Not Active
2. Not Active

Values compiled from ChEMBL document CHEMBL1142792.
